Data origin: patent US20250163056A1

Assay details: Photostability, percentage remaining undegraded under illumination or in the dark
Assay context: percentage remaining undegraded in the dark, 24 h
Listing of entries alongside the reported Photostability Dark (24 h).
Express your answer in %, writing the number without its unit.

# count of solved cases: 5
COc1ccc2cc(N3CC[C@@]4(O)C(=O)c5cc(C)ccc5N=C34)ccc2n1	98.3
N#Cc1ccc(N2CC[C@@]3(O)C(=O)c4cc(C(F)(F)F)ccc4N=C23)cc1	97.5
Cc1cc2c(s1)C(=O)[C@]1(O)CCN(c3cccc(Br)c3)C1=N2	94.5
Cc1cc2c(cc1C)C(=O)[C@]1(O)CCN(c3ccc4c(c3)OCCC4)C1=N2	97.7
O=C1c2c(sc3c2CCCC3)N=C2N(c3ccc4ncccc4c3)CC[C@@]12O	98.0

For the molecule shown here, Cc1cc2cc(N3CC[C@@]4(O)C(=O)c5cc(F)c(C)cc5N=C34)ccc2o1 , give the reported Photostability Dark (24 h).
95.4

For the molecule shown here, Cc1sc2c(c1C)C(=O)[C@]1(O)CCN(c3cccc(Br)c3)C1=N2 , give the reported Photostability Dark (24 h).
90.2

For the molecule shown here, Cc1sc2c(c1C)C(=O)[C@]1(O)CCN(c3ccc(I)cc3)C1=N2 , give the reported Photostability Dark (24 h).
96.9

* * *

Listing of entries alongside the reported Ki.
Tested system: Rabbit skeletal myosin
Assay details: Skeletal muscle myosin II actin-activated ATPase assay
Assay context: 20 nM skeletal muscle myosin II; read-out: SKMMII KI
Express your answer in nM, writing the number without its unit.

# count of solved cases: 3
COc1cccc(N2CC[C@@]3(O)C(=O)c4cc(C)c(C)cc4N=C23)c1 [BPN-0026496]	15000
Cc1ccc2c(c1)C(=O)[C@]1(O)CCN(c3ccc4ncc(C)cc4c3)C1=N2	200
Cc1cc2c(cc1C)C(=O)[C@]1(O)CCN(c3ccc4nc(C)c(C)cc4c3)C1=N2	230

Now for the compound whose Ki we want.
For the compound shown here, O=C1c2cc(C(F)(F)F)ccc2N=C2N(c3ccc(Cl)cc3)CC[C@@]12O , give the reported Ki.
4800

* * *

Assay details: Photostability, percentage remaining undegraded under illumination or in the dark
Assay context: percentage remaining undegraded after 4 hours illumination
Listing of entries alongside the reported Photostability 4 hours.
Express your answer in %, writing the number without its unit.

# count of solved cases: 2
Cc1cc2c(cc1C)C(=O)[C@]1(O)CCN(c3ccc4c(c3)OCCC4)C1=N2	44.7
Cc1ccc(N2CC[C@@]3(O)C(=O)c4cc(C)c(C(F)(F)F)cc4N=C23)cc1Cl	87.8

Now for the molecule whose Photostability 4 hours we want.
For the molecule shown here, CCc1cc2c(s1)N=C1N(c3ccc4ncccc4c3)CC[C@@]1(O)C2=O , give the reported Photostability 4 hours.
97.9

* * *

Assay details: Photostability, percentage remaining undegraded under illumination or in the dark
Assay context: percentage remaining undegraded after 24 hours illumination
Measurement name: Photostability 24 hours

Cc1cc2c(s1)N=C1N(c3ccc4ccoc4c3)CC[C@@]1(O)C2=O	49.5%
Cc1cc2c(cc1F)C(=O)[C@]1(O)CCN(c3ccccc3)C1=N2 [BPN-0026387]	18.0%
Cc1cc2c(cc1C(F)(F)F)N=C1N(c3ccccc3)CC[C@@]1(O)C2=O	84.3%
Cc1cc2c(cc1C)C(=O)[C@]1(O)CCN(c3ccc4ncccc4c3)C1=N2	9.2%
Cc1sc2c(c1C)C(=O)[C@]1(O)CCN(c3cccc(Br)c3)C1=N2	88.2%

For the compound shown here, Cc1cc(N2CC[C@@]3(O)C(=O)c4cc(C(F)(F)F)ccc4N=C23)on1 , give the reported Photostability 24 hours.
15.8%

For the compound shown here, Cc1ccc2c(c1)C(=O)[C@]1(O)CCN(c3ccc(C)c(C)c3)C1=N2 , give the reported Photostability 24 hours.
7.5%

For the compound shown here, Cc1nc2cc(N3CC[C@@]4(O)C(=O)c5cc(F)c(C)cc5N=C34)ccc2o1 , give the reported Photostability 24 hours.
21.4%
